Target: Disintegrin and metalloproteinase domain-containing protein 10 (Homo sapiens) (UniProt O14672)
Sequence (O14672 214-748 limits assumed): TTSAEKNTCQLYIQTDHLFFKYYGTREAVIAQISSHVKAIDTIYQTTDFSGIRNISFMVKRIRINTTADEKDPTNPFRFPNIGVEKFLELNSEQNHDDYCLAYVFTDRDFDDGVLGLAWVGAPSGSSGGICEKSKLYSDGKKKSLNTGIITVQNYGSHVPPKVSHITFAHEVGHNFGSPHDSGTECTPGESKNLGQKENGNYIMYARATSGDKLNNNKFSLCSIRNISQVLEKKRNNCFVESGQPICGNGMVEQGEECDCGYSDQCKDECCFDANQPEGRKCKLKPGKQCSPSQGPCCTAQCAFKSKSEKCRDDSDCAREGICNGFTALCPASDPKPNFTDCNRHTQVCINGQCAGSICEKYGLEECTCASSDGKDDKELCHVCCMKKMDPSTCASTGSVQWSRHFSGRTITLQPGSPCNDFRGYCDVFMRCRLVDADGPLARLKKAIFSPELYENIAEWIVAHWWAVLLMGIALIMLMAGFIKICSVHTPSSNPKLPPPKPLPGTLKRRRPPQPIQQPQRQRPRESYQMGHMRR
Assay: blockers of ADAM10 peptide cleavage – biochemical, FRET, human ADAM10, counter-screen for ADAM17 exosite inhibitor project (AID 743256);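 also: 0% = DMSO wells and 100% = marimastat wells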
Conditions: recombinant ADAM10, EDANS/DABCYL FRET peptide cleavage, 3 h; at 6.95 µM
The campaign covered roughly 2,900 compounds. About 1,300 (45%) were called active.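 The calls were made as follows: active = mean inhibition over the triplicate runs exceeds the activity threshold set in the earlier primary screen (cut at about 20% in these data); inactive = the rest.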 So high a share suggests a set chosen from earlier hits. Not all results are given here.
# valid calls are yes (1) (active), no (0) (inactive); nothing else

O=C(c1ccccc1)N1CCN(c2ccc([N+](=O)[O-])c(NCc3ccco3)c2)CC1: no (0)

Query: Per the assay record, what outcome was assigned to COCCNC(=O)C(c1ccc(C)o1)N(Cc1ccccc1)C(=O)Cn1nnc2ccccc21 (stereo not given) ?
Result: no (0)

Query: Another compound to look at: COc1ccc(CN(C)C(=O)CC(c2ccccc2)c2ccccc2)cc1
Result: no (0)

Query: Another compound to look at: C=CCOc1ccccc1/C=N/NC(=O)Cc1ccccc1
Result: no (0)

###

Biological target: Disintegrin and metalloproteinase domain-containing protein 10 (Homo sapiens)
Test: blockers of ADAM10 peptide cleavage – biochemical, FRET, human ADAM10, counter-screen for ADAM17 exosite inhibitor project (AID 743256);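 also: 0% = DMSO wells and 100% = marimastat wells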
Details: recombinant ADAM10, EDANS/DABCYL FRET peptide cleavage, 3 h; at 6.95 µM
Out of some 2,900 compounds screened, about 1,300 (45%) were called active.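 Rule for the calls: active = mean inhibition over the triplicate runs exceeds the activity threshold set in the earlier primary screen (cut at about 20% in these data); inactive = the rest.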 The set was probably picked from earlier hits. A selection follows.
# valid calls are active, inactive; nothing else

Here are 6 compounds together with their reported answers.
CC[C@@]12C(=O)N(c3ccccc3)C(=O)N1[C@H](c1ccc(Br)cc1)[C@@H]1C(=O)N(C(C)(C)C)C(=O)[C@@H]12: inactive
Cc1ccc(C)c(NC(=S)NNC(=S)Nc2ccc(C(C)C)cc2)c1: active
O=C1/C(=C\c2ccsc2)NC(=S)N1c1ccccc1: inactive
CC(C)(C)N1C(=O)[C@H]2[C@@H](c3ccc(Br)cc3)N3C(=O)N(c4cccc(Cl)c4)C(=O)[C@@]3(C)[C@H]2C1=O: active
C=CC(COCc1ccccc1)N(CC(=O)OC)S(=O)(=O)c1cc(Br)ccc1OC (centres undefined): inactive
NNC(=O)C1CCCn2c1nc1sc3c(c1c2=O)CCCC3 (centres undefined): inactive

Query: Per the assay record, what outcome was assigned to O=C(Nn1c(SCc2ccc([N+](=O)[O-])cc2)nc2ccccc2c1=O)c1ccc(F)cc1 ?
Result: active

Query: Another compound to look at: O=C(COc1ccc(Cl)cc1)N1CCN(c2cccc(C(F)(F)F)c2)CC1
Result: inactive

Query: Another compound to look at: Cn1nc(C(F)(F)F)c(C(=O)Nc2cccc(C(F)(F)F)c2)c1SCc1ccc(Cl)cc1
Result: active

###

Biological target: Disintegrin and metalloproteinase domain-containing protein 10 (Homo sapiens) (UniProt O14672)
Test: blockers of ADAM10 peptide cleavage – biochemical, FRET, human ADAM10, counter-screen for ADAM17 exosite inhibitor project (AID 743256);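 also: 0% = DMSO wells and 100% = marimastat wells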
Details: recombinant ADAM10, EDANS/DABCYL FRET peptide cleavage, 3 h; at 6.95 µM; active compounds read high
Hit rate of the full screen: of about 2,900 compounds, about 1,300 (45%) were called active. The set was probably picked from earlier hits. Only a sample is shown.
The reader will find reported inhibition values listed item by item below.
State just the number; it will be interpreted in %.

Known results for compounds:
CCOC(=O)c1cccc(NC(=O)CN(C)S(=O)(=O)c2ccc(-c3cocn3)s2)c1: 4.04
C=C(C)COc1ccc(-c2n[nH]c(C)c2-c2ccccc2)c(O)c1: 40.8
Cn1nc(C(F)(F)F)c2cc(NC(=O)OCC(C)(C)C)sc21: 13
S=C(NCc1ccc(Cl)cc1)NC12CC3CC(CC(C3)C1)C2: 22.6
Cc1cc(C)cc(NS(=O)(=O)c2ccc(Oc3ncc(C(F)(F)F)cc3Cl)cc2)c1: 39

Query: Record request: inhibition value, item CCOc1ccc(N2C(=O)CC(N(CCc3ccc(OC)c(OC)c3)C(=S)Nc3ccccc3)C2=O)cc1 (stereo unspecified)
Result: 4.08
